# test_name: chemical genetic growth profiling, strain panel (AID 1159580);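 note: tested at 20 µM; growth read once vehicle control cultures reached saturation at 30 °C; 1 = growth at the plate median or of vehicle wells; lower values mean less growth of the strain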
# test_settings: S. cerevisiae deletion strains, growth OD, locus YGR135W, strain pre9, stronger effect = lower value
In all, about 5,500 compounds went through this assay and about 2,000 (36%) were called active. Not shown: some 18% with an inconclusive outcome. The list shows a part of the results.
experimental_endpoint: normalized growth
I'd appreciate a reply containing only the number, no unit.

Exam item: Query normalized growth for C[C@@H]1OC(O[C@H]2[C@H](OC(=O)[C@]34CCC(C)(C)CC3C3=CCC5[C@@]6(C)CC[C@H](OC7O[C@@H](C)[C@H](O[C@@H]8OC[C@@H](O)[C@H](O)[C@H]8O)[C@@H](O)[C@H]7O)C(C)(C)C6CC[C@@]5(C)[C@]3(C)CC4O)OC[C@H](O)[C@H]2O)[C@H](O)[C@H](O)[C@H]1O[C@@H]1O[C@H](CO)[C@@H](O)[C@H](O)[C@H]1O (some centres undefined)
Marked response: 0.978

Exam item: Query normalized growth for Cc1cc(O)cc(=O)o1
Marked response: 1.03

Exam item: Query normalized growth for N[C@H](C(=O)O)[C@@H]1CC(Cl)=NO1
Marked response: 0.234

Exam item: Query normalized growth for C[C@H]1[C@H](C)CC[C@]2(CO)CC[C@]3(C)C(=CCC4[C@@]5(C)CC[C@H](O)C(C)(C)C5CC[C@]43C)[C@H]12 (some centres undefined)
Marked response: 1.01

Exam item: Query normalized growth for OC(CCN1CCCCC1)(c1ccccc1)C1CCCCC1 (centres undefined)
Marked response: 0.985

Exam item: Query normalized growth for CO[C@@]12[C@@H]3NC3CN1C1=C(C(=O)C(N)=C(C)C1=O)[C@@H]2COC(N)=O (some centres undefined)
Marked response: 1.02

Exam item: Query normalized growth for Cc1cc(O)cc(C)c1Cl
Marked response: 0.994

Exam item: Query normalized growth for Cc1cc(O)ccc1Cl
Marked response: 1.02

Exam item: Query normalized growth for Cc1cc(O)cc(O)c1C(=O)O
Marked response: 0.96

###

# test_name: chemical genetic growth profiling, strain panel (AID 1159580);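 note: tested at 20 µM; growth read once vehicle control cultures reached saturation at 30 °C; 1 = growth at the plate median or of vehicle wells; lower values mean less growth of the strain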
# test_settings: S. cerevisiae deletion strains, growth OD, locus YDL040C, strain nat1
About 2,000 (36%) of roughly 5,500 compounds were called active. About 18% were inconclusive and are not listed. Cut-off read from the data, not from the text of the source: active = normalized growth mostly below about 0.91 (no sharp cut-off); inconclusive = no clear call, values can overlap the other calls; inactive = mostly above about 0.92. This is one part of the list.
Use one of these outcomes when replying: active, inactive

Exam item: Would you mind telling me which call this test gave COc1ccc2c3c([nH]c2c1)C(C)=NCC3 ?
Marked response: inactive

Exam item: Would you mind telling me which call this test gave NNc1nncc2ccccc12 ?
Marked response: inactive

Exam item: Would you mind telling me which call this test gave CC(C)=CCCC1(C)C=Cc2c(O)c3c(c(CC=C(C)C)c2O1)OC12C(=CCCC1C(C)(C)O[C@@]2(C/C=C(\C)C(=O)O)C(=O)O)C3=O (stereo not given in full) ?
Marked response: inactive

Exam item: Would you mind telling me which call this test gave Nc1c2ccccc2nc2ccccc12 (tested in a mixture with another compound) ?
Marked response: active

Exam item: Would you mind telling me which call this test gave COc1ccc2c(c1)c(CC(=O)OCC(=O)O)c(C)n2C(=O)c1ccc(Cl)cc1 ?
Marked response: inactive

###

# test_name: chemical genetic growth profiling, strain panel (AID 1159580);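 note: tested at 20 µM; growth read once vehicle control cultures reached saturation at 30 °C; 1 = growth at the plate median or of vehicle wells; lower values mean less growth of the strain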
# test_settings: S. cerevisiae deletion strains, growth OD, locus YLR113W, strain HOG1
In all, about 5,500 compounds went through this assay and about 2,000 (36%) were called active. Roughly 18% stayed inconclusive and do not appear here. Rule as the data show it: active = normalized growth mostly below about 0.91 (no sharp cut-off); inconclusive = no clear call, values can overlap the other calls; inactive = mostly above about 0.92. The list shows a part of the results.
Use one of these outcomes when replying: active, inactive

Exam item: Would you mind telling me which call this test gave CC(C)Cc1ccc(C(C)C(=O)Nc2nn(C)c3ccccc23)cc1 (stereo not given) ?
Marked response: active

Exam item: Would you mind telling me which call this test gave COc1c(-c2coc3cc4c(cc3c2=O)CC(OC(C)=O)C(C)(C)O4)ccc2c1C=CC(C)(C)O2 (stereo not given) ?
Marked response: inactive

Exam item: Would you mind telling me which call this test gave N=C(N)SCCN ?
Marked response: inactive

Exam item: Would you mind telling me which call this test gave Cc1ccc(-c2cc(C(F)(F)F)nn2-c2ccc(S(N)(=O)=O)cc2)cc1 ?
Marked response: inactive

Exam item: Would you mind telling me which call this test gave Nc1ccccc1C(=O)N/N=C\c1cc(Br)ccc1O ?
Marked response: active

Exam item: Would you mind telling me which call this test gave O=P(O)(O)C(O)(Cc1cccnc1)P(=O)(O)O ?
Marked response: inactive

Exam item: Would you mind telling me which call this test gave Nc1ccc(S(=O)(=O)Nc2ccnn2-c2ccccc2)cc1 ?
Marked response: inactive

Exam item: Would you mind telling me which call this test gave CC1(C)CC[C@]2(C)CC[C@]3(C)C(=CCC4[C@@]5(C)CC[C@H](O)C(C)(C)C5CC[C@]43C)C2C1 (stereo not given in full) ?
Marked response: inactive

Exam item: Would you mind telling me which call this test gave CSc1n[nH]c(-c2cc(C(F)(F)F)cc(C(F)(F)F)c2)n1 ?
Marked response: active

Exam item: Would you mind telling me which call this test gave Cc1cc(-n2c(=O)[nH]c(=O)n(C)c2=O)ccc1Oc1ccc(SC(F)(F)F)cc1 ?
Marked response: active

Exam item: Would you mind telling me which call this test gave O=[N+]([O-])c1ccc(S(=O)(=O)c2ccccc2)nc1S(=O)(=O)c1ccccc1 ?
Marked response: active

Exam item: Would you mind telling me which call this test gave CC(C)=CCCC1(C)C=Cc2c(O)c3c(c(CC=C(C)C)c2O1)OC12C(=CC4CC1C(C)(C)OC2(C/C=C(\C)C(N)=O)C4=O)C3=O (stereo not given) ?
Marked response: active

Exam item: Would you mind telling me which call this test gave Cc1cc(O)cc(O)c1C(=O)O ?
Marked response: inactive

Exam item: Would you mind telling me which call this test gave CCOC(=O)OC(C)OC(=O)C1N2C(=O)C(NC(=O)[C@H](N)c3ccccc3)C2SC1(C)C (stereo not given in full) ?
Marked response: inactive

Exam item: Would you mind telling me which call this test gave O=C(Nc1ccc(C(=O)O)c(O)c1)c1ccccc1 ?
Marked response: inactive

Exam item: Would you mind telling me which call this test gave Cc1ccnc(NS(=O)(=O)c2ccc(N)cc2)n1 ?
Marked response: inactive

Exam item: Would you mind telling me which call this test gave NC(Cc1c[nH]c2ccccc12)C(=O)O (stereo not given) ?
Marked response: inactive

Exam item: Would you mind telling me which call this test gave CCN1C[C@]2(OC(=O)c3ccccc3NC(C)=O)CCC(OC)[C@]34C1[C@H](CC23)[C@@]1(O)CC(OC)[C@H]2CC4C1(O)[C@H]2OC (stereo not given in full) ?
Marked response: inactive

Exam item: Would you mind telling me which call this test gave Fc1cccc(Cl)c1CSc1n[nH]c(-c2cc(C(F)(F)F)cc(C(F)(F)F)c2)n1 ?
Marked response: active

Exam item: Would you mind telling me which call this test gave C[C@H]1[C@H](C)CC[C@]2(CO)CC[C@]3(C)C(=CCC4[C@@]5(C)CC[C@H](O)C(C)(C)C5CC[C@]43C)[C@H]12 (stereo not given in full) ?
Marked response: inactive

Exam item: Would you mind telling me which call this test gave CC(=O)Nc1ccc(OCC(O)CNC(C)C)cc1 (stereo not given) ?
Marked response: inactive

Exam item: Would you mind telling me which call this test gave NNC(=O)c1ccncc1 ?
Marked response: inactive

Exam item: Would you mind telling me which call this test gave O=S(=O)(NC(=S)Nc1ccc(Cl)c(Cl)c1)c1ccccc1 ?
Marked response: inactive

Exam item: Would you mind telling me which call this test gave Cc1cc(O)ccc1Cl ?
Marked response: inactive

Exam item: Would you mind telling me which call this test gave CC(=O)O[C@H]1CC[C@@]2(C)C(CC[C@]3(C)C2CC=C2C4CC(C)(C)CC[C@]4(C)CC[C@]23C)C1(C)C (stereo not given in full) ?
Marked response: inactive

Exam item: Would you mind telling me which call this test gave Cc1cc(O)cc(C)c1Cl ?
Marked response: inactive

Exam item: Would you mind telling me which call this test gave COc1ccc2nc3ccccc3c(N)c2c1 ?
Marked response: active

Exam item: Would you mind telling me which call this test gave COC(=O)c1cnn(-c2c(Cl)cccc2Cl)c1C=C(C#N)C#N ?
Marked response: active

Exam item: Would you mind telling me which call this test gave CCCNCCCCCC[N+](C)(C)C ?
Marked response: inactive

Exam item: Would you mind telling me which call this test gave Nc1ccccc1C(=O)CC(N)C(=O)O (stereo not given) ?
Marked response: inactive

Exam item: Would you mind telling me which call this test gave C[C@@H]1OC(O[C@H]2[C@H](O)[C@@H](O)[C@H](OC[C@H]3O[C@@H](OC(=O)[C@]45CCC(C)(C)CC4C4=CCC6[C@@]7(C)CC[C@H](OC8OC[C@H](O)[C@H](O)[C@H]8OC8O[C@@H](C)[C@H](O)[C@@H](O)[C@H]8O)[C@@](C)(CO)C7CC[C@@]6(C)[C@]4(C)CC5)[C@H](O)[C@@H](O)[C@@H]3O)O[C@@H]2CO)[C@H](O)[C@H](O)[C@H]1O (stereo not given in full) ?
Marked response: inactive

Exam item: Would you mind telling me which call this test gave Clc1cc(Cl)cc(-c2nc(SCc3ccc(Cl)cc3Cl)n[nH]2)c1 ?
Marked response: active

Exam item: Would you mind telling me which call this test gave O=C(c1cccs1)N(Cc1cccnc1)Cc1ccc(Cl)cc1Cl ?
Marked response: inactive

Exam item: Would you mind telling me which call this test gave CC1(C)CC[C@]2(C(=O)O)CC[C@]3(C)C(=CCC4[C@@]5(C)CC[C@@H](O)C(C)(C)C5CC[C@]43C)C2C1 (stereo not given in full) ?
Marked response: inactive

Exam item: Would you mind telling me which call this test gave CN(C)CCCSC(=N)N ?
Marked response: inactive

Exam item: Would you mind telling me which call this test gave CC1(C)CC[C@]2(C(=O)O)CC[C@]3(C)C(=CCC4[C@@]5(C)CC[C@H](O)[C@@](C)(CO)C5CC[C@]43C)C2C1 (stereo not given in full) ?
Marked response: inactive

Exam item: Would you mind telling me which call this test gave O=C(NCC(c1ccccc1)c1c[nH]c2ccccc12)c1ccc(C(F)(F)F)cc1 (stereo not given) ?
Marked response: active

Exam item: Would you mind telling me which call this test gave CC1=NS(=O)(=O)c2cc(Cl)ccc2N1 ?
Marked response: inactive

Exam item: Would you mind telling me which call this test gave COc1c(-c2coc3cc4c(cc3c2=O)CC(O)C(C)(C)O4)ccc2c1C=CC(C)(C)O2 (stereo not given) ?
Marked response: inactive

Exam item: Would you mind telling me which call this test gave CCC(C)C(NC)C(=O)O (stereo not given) ?
Marked response: inactive
